# target of assay: human-recombinant protein kinase N (Homo sapiens, UniProt Q16512)
# Sequence (Q16512 whole entry): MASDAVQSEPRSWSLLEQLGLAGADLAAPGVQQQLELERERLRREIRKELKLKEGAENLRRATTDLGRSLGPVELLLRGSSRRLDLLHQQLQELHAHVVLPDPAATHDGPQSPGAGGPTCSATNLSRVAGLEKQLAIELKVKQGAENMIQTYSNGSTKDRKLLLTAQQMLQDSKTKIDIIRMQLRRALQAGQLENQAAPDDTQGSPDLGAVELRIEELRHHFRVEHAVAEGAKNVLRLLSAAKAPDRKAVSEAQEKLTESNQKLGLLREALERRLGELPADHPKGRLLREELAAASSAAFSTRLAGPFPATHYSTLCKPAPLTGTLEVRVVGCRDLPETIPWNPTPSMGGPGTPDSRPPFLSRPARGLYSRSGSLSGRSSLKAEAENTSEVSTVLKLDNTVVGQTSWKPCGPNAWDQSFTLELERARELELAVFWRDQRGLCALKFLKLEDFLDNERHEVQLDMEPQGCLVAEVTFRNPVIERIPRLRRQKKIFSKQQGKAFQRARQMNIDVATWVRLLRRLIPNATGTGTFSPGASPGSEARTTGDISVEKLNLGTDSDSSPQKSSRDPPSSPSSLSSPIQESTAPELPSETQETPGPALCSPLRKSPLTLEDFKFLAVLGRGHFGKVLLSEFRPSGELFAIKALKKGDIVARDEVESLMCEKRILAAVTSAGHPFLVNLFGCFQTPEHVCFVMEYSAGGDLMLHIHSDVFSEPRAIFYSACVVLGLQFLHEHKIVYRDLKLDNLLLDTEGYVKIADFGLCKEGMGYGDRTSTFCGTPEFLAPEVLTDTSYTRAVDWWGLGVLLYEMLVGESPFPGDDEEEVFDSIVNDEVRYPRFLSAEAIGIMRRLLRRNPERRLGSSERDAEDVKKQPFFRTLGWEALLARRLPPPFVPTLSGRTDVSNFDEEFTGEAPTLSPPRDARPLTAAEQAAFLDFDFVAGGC
# Sequence (P61586 whole entry partner): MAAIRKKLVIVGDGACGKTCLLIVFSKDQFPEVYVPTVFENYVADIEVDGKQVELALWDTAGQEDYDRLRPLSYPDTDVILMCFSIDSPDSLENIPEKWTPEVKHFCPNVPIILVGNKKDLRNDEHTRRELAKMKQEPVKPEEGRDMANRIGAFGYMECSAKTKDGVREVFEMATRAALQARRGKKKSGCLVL
# assay protocol: Measurement of inhibition activity of protein kinase N (PKN)
# condition summary: 1 µM Fasudil Hydrochloride; ATP 50, 20, 10 and 5 µM; Lineweaver-Burk plot; 10 minutes at 30°C
measurement kind: Ki (nM)

{"molecule": "Cl.O=S(=O)(c1cccc2cnccc12)N1CCCNCC1 [Fasudil Hydrochloride]", "target of assay": "human-recombinant protein kinase N (Homo sapiens, UniProt Q16512)", "recorded value": 922}
